All figures here come from patent US20080221134A1.

# SYSTEM TESTED: Rat A2A AR (Rattus norvegicus)
Ki strictly under 0.05 µM means 1; at 0.05 µM or over means 0.

> print(dat)
                                   compound  classification
1  C#CCn1c(=O)c2c(nc(C#Cc3ccc(Cl)c(Cl)c3)n2C)n(CC)c1=O [drawing 550]               0
2  C#CCn1c(=O)c2c(nc(C#Cc3cccc(OC(C)=O)c3)n2C)n(C)c1=O [drawing 472]               0
3  C#CCn1c(=O)[nH]c2nc(C#Cc3ccc(OC)c(OC)c3)n(C)c2c1=O [drawing 483]               1
4  C#CCn1c(=O)c2c(nc(C#Cc3ccc(OC)c(OC)c3)n2C)n(CCCOP(=O)(O)O)c1=O [drawing 494]               1
5  C#CCn1c(=O)c2c(nc(C#Cc3cccc(OCCO)c3)n2C)n(C)c1=O [drawing 469]               0

In the record for C#CCn1c(=O)c2c(nc(C#Cc3ccc(OC)c(OC)c3)n2C)n(C(C)C)c1=O [drawing 516] , is Ki less than 0.05 µM? 0

Another compound: C#CCn1c(=O)c2c(nc(C#Cc3cccc(OC)c3)n2C)n(CCO)c1=O [drawing 491] 0

// repeat for C#CCn1c(=O)c2c(nc(C#Cc3cccc(C)c3)n2C)n(CC)c1=O [drawing 486] and report 0

Repeat for the following compound: C#CCn1c(=O)c2c(nc(C#Cc3ccc(OC)c(OC)c3)n2C)n(CCF)c1=O [drawing 518] 1

What do you get for C#CCn1c(=O)c2c(nc(C#Cc3ccc(OC)c(OC)c3)n2C)n(CC(O)CO)c1=O (stereo not drawn) [drawing 493] ? 1

// repeat for C#CCn1c(=O)c2c(nc(C#Cc3cccc(C)c3)n2C)n(CCCO)c1=O [drawing 534] and report 1

// query: C#CCn1c(=O)c2c(nc(C#Cc3ccc(OC)c(OC)c3)n2C)n(CCCC#N)c1=O [drawing 508] 1

Again, but for C#CCn1c(=O)c2c(nc(C#Cc3ccc(OC)c(OC)c3)n2C)n(CC(C)O)c1=O (stereo not drawn) [drawing 502] 1

Then C#CCn1c(=O)c2c(nc(C#Cc3ccc(OC)c(OC)c3)n2C)n(C[C@H](C)CO)c1=O ? 1

Would you mind doing C#CCn1c(=O)c2c(nc(C#Cc3cccc(C)c3)n2C)n(C)c1=O [drawing 460] as well? 1

Param item: C#CCn1c(=O)c2c(nc(C#Cc3cccc(OC)c3)n2C)n(CCN(C)C)c1=O [drawing 536] 0

Next record, please: C#CCn1c(=O)c2c(nc(C#Cc3cccc(OCCCN(C)C)c3)n2C)n(C)c1=O [drawing 470] 1

* * *

Measured IC50, listed per entry.
# SYSTEM TESTED: Adenosine A1 (Homo sapiens)
# ASSAY REMARKS: Functional assay (luciferase reporter), inhibition of A1 adenosine receptor
# PARTICULARS: CHO-DUKX-SRE-Luci-A1-44 cells, 3.5 μM ADAC; read-out: A1 AR IC50
The figure you give is taken to be in nM; do not add the unit.

> print(dat)
                                   molecule  measurement.unit  value.measured
1  C#CCn1c(=O)c2c(nc(C#Cc3cccc(OC)c3)n2CC#C)n(C)c1=O [drawing 621]                nM            2300
2  C#CCn1c(=O)c2c(nc(C#Cc3cccc(OC)c3)n2C)n(CCCO)c1=O [drawing 620]                nM            1700

Entry C#CCn1c(=O)c2c(nc(C#Cc3cccc(C)c3)n2C)n(CCCO)c1=O [drawing 623] has what IC50? 1300

* * *

# SYSTEM TESTED: Rat A1 AR (Rattus norvegicus)
# Sequence (P25099 1-326): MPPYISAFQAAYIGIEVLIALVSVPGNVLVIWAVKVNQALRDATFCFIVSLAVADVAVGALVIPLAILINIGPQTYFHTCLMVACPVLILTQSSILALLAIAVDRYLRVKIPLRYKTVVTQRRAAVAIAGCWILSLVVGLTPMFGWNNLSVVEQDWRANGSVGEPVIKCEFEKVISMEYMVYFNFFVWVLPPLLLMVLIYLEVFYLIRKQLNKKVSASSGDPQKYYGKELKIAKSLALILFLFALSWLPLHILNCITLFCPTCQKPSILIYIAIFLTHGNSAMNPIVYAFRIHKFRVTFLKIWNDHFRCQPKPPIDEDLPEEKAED
pKi: −log10 of the molar value.
PROPERTY NAME: pKi

> print(dat)
                                   compound  property.name  value.measured
1  C#CCn1c(=O)c2c(nc(C#Cc3cccc(OCCO)c3)n2C)n(C)c1=O [drawing 469]            pKi          ≤ 5.00
2  C#CCn1c(=O)c2c(nc(C#Cc3ccc(OC)c(OC)c3)n2C)n(Cc2cnc[nH]2)c1=O [drawing 527]            pKi          < 6.00

Given the compound C#CCn1c(=O)c2c(nc(C#Cc3ccc(OC)c(OC)c3)n2C)n(CC(C)C)c1=O [drawing 517] , what is its reported pKi? ≤ 6.00

* * *

# SYSTEM TESTED: Rat A2A AR (Rattus norvegicus, UniProt P30543)
# Sequence (P30543 whole entry): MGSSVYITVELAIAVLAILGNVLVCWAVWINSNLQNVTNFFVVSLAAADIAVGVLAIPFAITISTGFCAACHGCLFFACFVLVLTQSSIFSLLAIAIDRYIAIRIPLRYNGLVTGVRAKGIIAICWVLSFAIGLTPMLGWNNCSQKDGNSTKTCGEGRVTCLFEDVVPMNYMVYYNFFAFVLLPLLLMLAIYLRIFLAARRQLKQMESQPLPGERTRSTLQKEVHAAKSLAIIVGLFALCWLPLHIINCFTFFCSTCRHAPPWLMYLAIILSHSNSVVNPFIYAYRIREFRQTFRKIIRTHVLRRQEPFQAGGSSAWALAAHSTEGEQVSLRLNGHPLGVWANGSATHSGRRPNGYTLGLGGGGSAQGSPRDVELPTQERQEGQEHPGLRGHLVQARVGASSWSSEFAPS
pKi: −log10 of the molar value.
Entry flag: Criterion met if pKi reaches 7; Criterion not met if it does not.

Sample answers from the record:
> print(dat)
                                    molecule                             system.tested     classification
 1  C#CCn1c(=O)c2c(nc(C#Cc3ccc(OC)c(OC)c3)n2C)n(CC(C)C)c1=O [drawing 517]  Rat A2A AR (Rattus norvegicus, UniProt P30543)      Criterion met
 2  C#CCn1c(=O)c2c(nc(C#Cc3ccc(OC)c(OC)c3)n2C)n(Cc2ccsc2)c1=O  Rat A2A AR (Rattus norvegicus, UniProt P30543)      Criterion met
 3  C#CCn1c(=O)c2c(nc(C#Cc3cccc(OCCN(C)C)c3)n2C)n(C)c1=O [drawing 473]  Rat A2A AR (Rattus norvegicus, UniProt P30543)      Criterion met
 4  C#CCn1c(=O)c2c(nc(C#Cc3ccc(OC)c(OC)c3)n2C)n(CC(=O)OC)c1=O [drawing 546]  Rat A2A AR (Rattus norvegicus, UniProt P30543)      Criterion met
 5  C#CCn1c(=O)c2c(nc(C#Cc3cccc(OCC)c3)n2C)n(C)c1=O  Rat A2A AR (Rattus norvegicus, UniProt P30543)  Criterion not met
 6  C#CCn1c(=O)c2c(nc(C#Cc3cccc(OC)c3)n2C)n(CC)c1=O [drawing 485]  Rat A2A AR (Rattus norvegicus, UniProt P30543)      Criterion met
 7  C#CCn1c(=O)c2c(nc(C#Cc3ccc(OC)c(F)c3)n2C)n(CC)c1=O  Rat A2A AR (Rattus norvegicus, UniProt P30543)      Criterion met
 8  C#CCn1c(=O)c2c(nc(C#Cc3ccccc3)n2C)n(C)c1=O [drawing 452]  Rat A2A AR (Rattus norvegicus, UniProt P30543)  Criterion not met
 9  C#CCn1c(=O)c2c(nc(C#Cc3ccc(OC)c(OC)c3)n2C)n(CCOC)c1=O [drawing 498]  Rat A2A AR (Rattus norvegicus, UniProt P30543)      Criterion met
10  C#CCn1c(=O)c2c(nc(C#Cc3ccc(OC)c(OC)c3)n2C)n(Cc2ccco2)c1=O [drawing 503]  Rat A2A AR (Rattus norvegicus, UniProt P30543)      Criterion met

Quick check, pKi >= 7? C#CCn1c(=O)c2c(nc(C#Cc3ccccc3OC)n2C)n(C)c1=O Criterion not met

Further, for C#CCn1c(=O)c2c(nc(C#Cc3ccc(OC)c(OC)c3)n2C)n(CC2CC2)c1=O [drawing 521] ? Criterion met

Try this molecule next: C#CCn1c(=O)c2c(nc(C#Cc3ccc(OCC)c(OCC)c3)n2C)n(CC)c1=O [drawing 497] Criterion not met

* * *

# SYSTEM TESTED: A1-adenosine receptor human recombinant (Homo sapiens, UniProt P30542)
# Sequence (P30542 1-326): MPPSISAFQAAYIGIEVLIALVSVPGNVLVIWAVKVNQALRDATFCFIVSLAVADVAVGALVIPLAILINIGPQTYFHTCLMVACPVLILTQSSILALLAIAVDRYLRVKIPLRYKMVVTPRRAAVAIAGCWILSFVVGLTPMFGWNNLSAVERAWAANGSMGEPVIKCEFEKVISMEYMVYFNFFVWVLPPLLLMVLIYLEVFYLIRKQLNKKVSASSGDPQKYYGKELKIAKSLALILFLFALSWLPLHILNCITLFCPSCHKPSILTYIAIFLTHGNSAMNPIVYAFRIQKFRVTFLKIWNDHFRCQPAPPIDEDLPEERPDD
# ASSAY REMARKS: Radioligand binding assay 1, human recombinant A1 adenosine receptor
# PARTICULARS: [3H]CCPA
Measured Ki by item

> print(dat)
                                   compound  value.measured
1  C#CCn1c(=O)c2c(nc(C#Cc3cccc(OC)c3)n2C)n(CCCO)c1=O [drawing 564]       > 3000 nM

Which Ki is reported for this compound? C#CCn1c(=O)c2c(nc(C#Cc3ccc(Cl)c(Cl)c3)n2C)n(CC)c1=O [drawing 597] > 1000 nM

And what about the compound C#CCn1c(=O)c2c(nc(C#Cc3ccc(OC)c(OC)c3)n2C)n(CC2CC2)c1=O [drawing 590] ? > 1000 nM

Also need C#CCn1c(=O)c2c(nc(C#Cc3ccc(OC)c(OC)c3)n2C)n(CCOC)c1=O [drawing 574] , thanks. > 1000 nM

How about C#CCn1c(=O)c2c(nc(C#Cc3ccc(OC)c(OC)c3)n2C)n(CC(C)C)c1=O [drawing 585] ? ≥ 1000 nM

Then this compound: C#CCn1c(=O)c2c(nc(C#Cc3cccc(OC)c3)n2C)n(CC(O)CO)c1=O (stereo not shown) [drawing 569] > 3000 nM

Let us now turn to C#CCn1c(=O)c2c(nc(C#Cc3cccc(C)c3)n2C)n(CC)c1=O [drawing 566] > 3000 nM
